From: patent US20140112915A1

Biological target: T1, Native human IL-18 (human, UniProt Q14116 37-193)
T1 sequence: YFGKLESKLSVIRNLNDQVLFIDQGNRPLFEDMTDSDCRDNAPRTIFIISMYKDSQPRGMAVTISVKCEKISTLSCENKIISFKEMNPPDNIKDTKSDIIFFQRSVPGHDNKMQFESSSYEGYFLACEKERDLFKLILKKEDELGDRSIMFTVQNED
Test: cell-based or functional assay
Recorded Endpoint: IC50, inhibition of IFN-γ release, human whole blood, LPS/IL-12 (native IL-18) (nM)
Please reply with the bare figure in nM and do not write the unit itself.

Worked set:
1) MOR9464_N30Y (antibody, human IgG1, lambda, L234A L235A, V domains shown) VH: EVQLVQSGAEVKKPGSSVKVSCKASGGTFYSYAISWVRQAPGQGLEWMGNIIPMTGQTYYAQKFQGRVTITADESTSTAYMELSSLRSEDTAVYYCARAAYHPLVFDNWGQGTLVTVSS VL: DIVLTQPPSVSGAPGQRVTISCSGSSSNIGNHYVNWYQQLPGTAPKLLIYRNNHRPSGVPDRFSGSKSGTSASLAITGLQSEDEADYYCQSWDYSGFSTVFGGGTKLTVLG: 17.9
2) MOR9464_N30G (antibody, human IgG1, lambda, L234A L235A, V domains shown) VH: EVQLVQSGAEVKKPGSSVKVSCKASGGTFGSYAISWVRQAPGQGLEWMGNIIPMTGQTYYAQKFQGRVTITADESTSTAYMELSSLRSEDTAVYYCARAAYHPLVFDNWGQGTLVTVSS VL: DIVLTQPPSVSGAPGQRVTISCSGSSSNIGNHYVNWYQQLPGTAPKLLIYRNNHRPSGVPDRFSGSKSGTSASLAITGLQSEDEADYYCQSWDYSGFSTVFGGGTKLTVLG: 15.1

Qu. Value lookup for IC50, inhibition of IFN-γ release, human whole blood, LPS/IL-12 (native IL-18); key = MOR9464_N30L (antibody, human IgG1, lambda, L234A L235A, V domains shown) VH: EVQLVQSGAEVKKPGSSVKVSCKASGGTFLSYAISWVRQAPGQGLEWMGNIIPMTGQTYYAQKFQGRVTITADESTSTAYMELSSLRSEDTAVYYCARAAYHPLVFDNWGQGTLVTVSS VL: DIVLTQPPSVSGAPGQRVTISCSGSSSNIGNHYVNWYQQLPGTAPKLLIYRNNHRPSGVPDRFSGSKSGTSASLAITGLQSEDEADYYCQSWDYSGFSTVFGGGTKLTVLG
Ans. 15.5
